target: human mAChR M4 (Homo sapiens, UniProt P08173); construct: expressed in transfected cells; host or cells: CHO-K1 (ATCC), stably co-expressing chimeric G protein Gqi5; experiment: mAChR M4 cell-based functional assay (calcium mobilization, EC80 acetylcholine), human M4; conditions: Table 9; human M4; % ACh maximum at 30 μM
Sequence (P08173 whole entry): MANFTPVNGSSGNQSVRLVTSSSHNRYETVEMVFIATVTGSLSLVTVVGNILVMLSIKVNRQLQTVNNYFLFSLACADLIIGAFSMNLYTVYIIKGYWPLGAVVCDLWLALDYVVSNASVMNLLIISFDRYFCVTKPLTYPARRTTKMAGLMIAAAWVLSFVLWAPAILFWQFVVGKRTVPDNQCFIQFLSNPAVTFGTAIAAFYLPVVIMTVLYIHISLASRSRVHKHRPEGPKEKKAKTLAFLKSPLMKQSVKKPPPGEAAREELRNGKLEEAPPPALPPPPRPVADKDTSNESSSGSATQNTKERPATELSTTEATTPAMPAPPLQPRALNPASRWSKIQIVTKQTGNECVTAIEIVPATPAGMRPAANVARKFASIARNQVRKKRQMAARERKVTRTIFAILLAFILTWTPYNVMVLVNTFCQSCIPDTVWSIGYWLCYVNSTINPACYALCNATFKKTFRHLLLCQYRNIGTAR
property_measured: Emin (%)
Respond with the bare value in %.

Worked examples follow.
| compound | recorded_number |
| --- | --- |
| Cc1cnn(C)c1-c1ccc(NC(=O)C2CC3CN(CC(C)C(C)(C)C)CC3C2)nn1 (centres unmarked) | 4.09 |
| Cc1nn(C)cc1-c1ccc(OCC2C[C@@H]3CN(Cc4ccccc4)C[C@@H]3C2)nn1 (some centres unmarked) | 5.92 |
| CC(=O)Nc1ccc(-c2ccc(N[C@@H]3C[C@@H]4CN(CCC(C)(C)C)C[C@@H]4C3)nn2)cc1 | 26.8 |

Briefly, Emin measured for Fc1ccc(Cl)c(-c2ccc(O[C@@H]3C[C@@H]4CN(CC5CCOCC5)C[C@@H]4C3)nn2)c1 : 20.7

Briefly, Emin measured for Cc1nn(C)cc1-c1ccc(NCC2C[C@@H]3CN(CC(C)C(C)(C)C)C[C@@H]3C2)nn1 (some centres unmarked) : 3.46

Briefly, Emin measured for Cc1nn(C)cc1-c1ccc(OCC2C[C@@H]3CN(CC45CC6CC(CC(C6)C4)C5)C[C@@H]3C2)nn1 (some centres unmarked) : 4.05

Briefly, Emin measured for Cc1nn(C)cc1-c1ccc(OCC2C[C@@H]3CN(Cc4ccccn4)C[C@@H]3C2)nn1 (some centres unmarked) : 14.7

Briefly, Emin measured for Fc1ccc(Cl)c(-c2ccc(OCC3C[C@@H]4CN(CC5CCCOC5)C[C@@H]4C3)nn2)c1 (some centres unmarked) : 4.76

Briefly, Emin measured for CCC(C)CN1C[C@H]2CC(COc3ccc(-c4cc(F)ccc4Cl)nn3)C[C@H]2C1 (some centres unmarked) : 4.62

Briefly, Emin measured for Cc1nn(C)cc1-c1ccc(OCC2C[C@@H]3CN(CCC(C)(C)C)C[C@@H]3C2)nn1 (some centres unmarked) : 4.01

Briefly, Emin measured for Fc1ccc(Cl)c(-c2ccc(N[C@H]3C[C@@H]4CN(Cc5ccccc5)C[C@@H]4C3)nn2)c1 : 8.84

Briefly, Emin measured for Cc1nn(C)cc1-c1ccc(O[C@@H]2C[C@@H]3CN(CC4CCCOC4)C[C@@H]3C2)nn1 (some centres unmarked) : 19.8

Briefly, Emin measured for Fc1ccc(Cl)c(-c2ccc(OCC3C[C@@H]4CN(CC56CC7CC(CC(C7)C5)C6)C[C@@H]4C3)nn2)c1 (some centres unmarked) : 5.03

----------
molecular target: human mAChR M4 (Homo sapiens); construct: expressed in transfected cells; host or cells: CHO-K1 (ATCC), stably co-expressing chimeric G protein Gqi5; test: mAChR M4 cell-based functional assay (calcium mobilization, EC80 acetylcholine), human M4; conditions: Table 10
Consider the following compounds and their measured Human M4 Emin readings.
Respond with the bare value in %.

Briefly, Human M4 Emin measured for F[C@@H]1CCN(c2ccc(N[C@H]3C[C@@H]4CN(CC5CCOCC5)C[C@@H]4C3)nn2)C1 [Compound 194] : 5

Briefly, Human M4 Emin measured for Cc1cnn(C)c1-c1ccc(OC[C@@H]2C[C@@H]3CN(CCC(C)(C)C)C[C@@H]3C2)nn1 [Compound 147] : 4

Briefly, Human M4 Emin measured for Fc1ccc(Cl)c(-c2ccc(N[C@H]3C[C@@H]4CN(Cc5ccncc5)C[C@@H]4C3)nn2)c1 [Compound 162] : 3
